- assayedSystem: T1, human ACTH 1-39 (human)
- T1 construct: unlabelled synthetic peptide (Bachem or American Peptide) as used in SPR and cell assays; also called huACTH 1-39; huACTH(1-39)
- T1 peptide: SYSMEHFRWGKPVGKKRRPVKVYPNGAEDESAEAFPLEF
- procedureSummary: SPR ProteOn, antibody immobilised
measurementName: koff (s⁻¹)
Quick note: give the figure in s⁻¹, leave out the unit.

Would you please look over these solved cases?
Provide koff value for the following binder: Ab4 (antibody, human IgG1, kappa, N297A, V domains shown, rabbit/human chimeric antibody, made in HEK-293) VH: QSVEESGGRLVTPGTPLTLTYTVSGFSLSKHDMIWVRQAPGKGLESIGIIYDDGDTYYANWAKGRFTISKTSTTVDLKIISPTTEDTATYFCVKGVSNIWGPGTLVTVSS VL: DVVMTQTPASVEAAVGGTVTIKCRASQSISVYLAWYQQKAGQPPKLLIYQASKLASGVPSRFKGSGSGTEFTLTISDLECADAATYYCQSYDGSSSSSYGVGFGGGTEVVVKR
0.00027

Return koff (reported value) for this binder: Ab1 (antibody, human IgG1, kappa, N297A, V domains shown, rabbit/human chimeric antibody, made in HEK-293) VH: QSVKESGGRLVTPGTPLTLTCTVSGFSLSNYDMIWVRQAPGKGLESIGMIYDDGDTYYASWAKGRFTISKTSTTVDLKIISPTTEDTATYFCVKGVSNHWGPGTLVTVSS VL: DVVMTQTPASVEAAVGGTVTIKCQASQSISSYLAWYQQKPGQPPKLLIYSASTLASGVPSRFKGRGSGTEFTLTISDLECADAATYYCQSYDGSSGSSYGVGFGGGTEVVVKR
0.00019

// fetch koff given entry Ab5 (antibody, human IgG1, kappa, N297A, V domains shown, rabbit/human chimeric antibody, made in HEK-293) VH: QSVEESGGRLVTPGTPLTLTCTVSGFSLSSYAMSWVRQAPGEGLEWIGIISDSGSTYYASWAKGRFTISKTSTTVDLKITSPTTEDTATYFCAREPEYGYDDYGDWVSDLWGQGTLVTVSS VL: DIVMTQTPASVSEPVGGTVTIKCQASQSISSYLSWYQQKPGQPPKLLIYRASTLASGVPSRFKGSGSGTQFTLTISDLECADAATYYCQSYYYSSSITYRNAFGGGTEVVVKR
6.4e-05

Quick one: give measured koff for Ab7 (antibody, human IgG1, kappa, N297A, V domains shown, rabbit/human chimeric antibody, made in HEK-293) VH: QSVEESGGRLVTPGTPLTLTCTVSGFSLSSYAMSWVRQAPGEGLEWIGIISDSGSTYYASWAKGRFTISKTSTTVDLRITSPTTEDTATYFCAREPEYGYDDYGDWVSDLWGQGTLVTVSS VL: DIVMTQTPASVEAAVGGTVTIKCQASQSISDYLSWYQQKPGQPPKLLIYRASTLASGVPSRFKGSGSGTQFTLTISDLECADAATYYCQSYYYSSSITYRNAFGGGTEVVVKR
3.7e-05

Assign koff to the following record: Ab11 (antibody, human IgG1, kappa, N297A, V domains shown, rabbit/human chimeric antibody, made in HEK-293) VH: QSLEESGGRLVTPGTSLTLTCTASGFSLSAYDILWVRQAPGKGLESIGMMYDDGDTYYATWAKGRFIISRTSTTMDLKIISPTTEDTATYFCVKGVSNIWGQGTLVTVSS VL: DIVMTQIPASVEAAVGGTVTIKCQASQSIDSSLAWYQQKPGQPPKLLIYSASTLASGVPSRFKGSGSGTEFTLTIGDLECADAATYYCQSYDGSSSSYYGIGFGGGTEVVVKR
4e-05

Hello, please tell me recorded koff for this one: Ab10 (antibody, human IgG1, kappa, N297A, V domains shown, rabbit/human chimeric antibody, made in HEK-293) VH: QSVEESGGRLVTPGTPLTLTCTVSGFSLSSADMIWVRQAPGKGLESIGMIYDDGDTYYATWAKGRFTISKTSTTVDLKIISPTTEDTATYFCVKGVSSVWGQGTLVTVSS VL: DVVMTQTPASVEAAVGGTVTINCQASENIYRSLAWYQQKPGQPPKLLIYSASTLASGVPSRFKGSGSGTEFTLTISDLECADAATYYCQSYDGSSSSSYGVGFGGGTEVVVKR
0.00011

Then there is this binder:
Tell me its koff given Ab6 (antibody, human IgG1, kappa, N297A, V domains shown, rabbit/human chimeric antibody, made in HEK-293) VH: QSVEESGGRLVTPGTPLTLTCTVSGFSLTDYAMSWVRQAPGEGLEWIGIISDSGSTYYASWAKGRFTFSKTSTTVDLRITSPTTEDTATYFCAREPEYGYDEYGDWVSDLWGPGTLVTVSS VL: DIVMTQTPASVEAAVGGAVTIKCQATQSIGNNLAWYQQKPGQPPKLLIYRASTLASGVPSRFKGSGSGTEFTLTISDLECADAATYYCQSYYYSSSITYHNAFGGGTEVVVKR as the entry.
1.9e-05
